B1: LINE1-full (parent)
chain: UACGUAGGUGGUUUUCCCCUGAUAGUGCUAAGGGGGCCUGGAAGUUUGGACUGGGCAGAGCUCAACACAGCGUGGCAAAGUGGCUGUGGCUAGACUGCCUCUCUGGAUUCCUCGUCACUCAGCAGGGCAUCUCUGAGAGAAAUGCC

Variants of: B1
Assay Protocol: self-cleavage, relative activity (ratio to wild type); higher = more cleavage; in vitro, sequencing; the parent is a self-cleaving ribozyme
Would you kindly list self-cleavage for each of these variants?
Respond with the number and no other words.

Req: Quick one: self-cleavage for U12G A107U ?
Resp: 0.98

Req: Next up: G32C G33U
Resp: 1.02

Req: Then what about the variant G83A U130A ?
Resp: 0.99
